Tested on: HER3-ss+4aa/Gaussia Luciferase
protocol-text: Dox-Induced Her3-ss-Gluc Assay
Format: cell-based
test-context: 24 hr doxycycline induction, 293FRT/TO cells, Gaussia luciferase signal; read-out: 24 hr Dox Inducible Her3(ss + 4)Gluc 293FRT/TO: Mean IC50
recorded-metric: IC50 (nM)

Below, each entry is followed by its recorded IC50 result.
substance-smiles	reported-value
O=C(Nc1nc(/C=C/c2cccnc2)cs1)c1cccn1Cc1ccncc1	9830
Cc1cccc2sc(NC(=O)c3cccn3Cc3ccncc3)nc12	2980

1 = CC(C)OC(C)(C)c1csc(NC(=O)c2cccn2Cc2ccncc2F)n1
2 = CC(C)OC(C)(C)c1csc(NC(=O)c2cccn2CCCc2ccccc2)n1
Request: Select the item whose IC50 value is smaller, choosing between 1 and 2 . Return value: the label identifying the chosen record.
Result: 1

---

Tested on: IL-2-FL/Gaussia Luciferase
protocol-text: Dox Induced IL2-FL-Gluc Assay
Assay type: cell-based
test-context: 24 hr doxycycline induction, 293FRT/TO cells, Gaussia luciferase signal; read-out: 24 hr Dox Inducible IL2FLGIuc 293FRT/TO: Mean IC50
pIC50: −log10 of the molar value.
recorded-metric: pIC50

substance-smiles	pIC50
O=C(Nc1nc([C@H]2CCCN2Cc2ccccc2)cs1)c1cccn1Cc1ccncc1	5.90
COc1cc(Cn2cccc2C(=O)Nc2nc(C(C)(C)OC(C)C)cs2)cc(F)n1	5.25
O=C(Nc1nc(/C=C/c2ccoc2)cs1)c1cccn1Cc1ccncc1	5.64
O=C(Nc1nc(Cc2ccccc2)cs1)c1cccn1Cc1ccncc1NCc1ccccc1	5.22

1 = O=C(Nc1nc(/C=C/c2cccc(Cl)c2)cs1)c1cccn1Cc1ccncc1
2 = CC(C)OC(C)(C)c1csc(NC(=O)c2cccn2Cc2cccnc2)n1
3 = CC1(c2csc(NC(=O)c3cccn3Cc3ccncc3)n2)CC1
4 = CC(C)Cc1cnc(NC(=O)c2cccn2Cc2ccncc2)s1
Request: In this exercise, place the 4 compounds in ascending sequence of their recorded pIC50. I'd appreciate it if you listed the labels in the requested order.
Result: 2, 4, 3, 1
(2: 5.07, 4: 5.31, 3: 5.68, 1: 5.91)

---

Tested on: IL-2-FL/Gaussia Luciferase
protocol-text: Dox Induced IL2-FL-Gluc Assay
Format: cell-based
test-context: 24 hr doxycycline induction, 293FRT/TO cells, Gaussia luciferase signal; read-out: 24 hr Dox Inducible IL2FLGIuc 293FRT/TO: Mean IC50
pIC50: −log10 of the molar value.
recorded-metric: pIC50

As a guide, the following entries are already answered.
compound	reported-value
Cc1sc(NC(=O)c2cccn2Cc2ccncc2)nc1C(C)(C)OC(C)C	5.97
CC(C)OC(C)(C)c1csc(NC(=O)c2cccn2CCCc2cccnc2)n1	5.46
O=C(Nc1nc([C@H]2CCCN2c2ccccc2)cs1)c1cccn1Cc1ccncc1	7.54
O=C(Nc1nc(C2CC2c2ccccc2)cs1)c1cccn1CCCc1ccncc1 (stereo not drawn)	5.90
O=C(Nc1nc(Cc2ccccc2)cs1)c1cccn1CCCc1cccnc1	4.94
O=C(Nc1nc([C@H]2CCN(Cc3ccccc3)C2)cs1)c1cccn1Cc1ccncc1	5.30

A = CC(C)OC(C)(C)c1csc(NC(=O)c2cccn2Cc2ccccc2)n1
B = Cc1cnccc1Cn1cccc1C(=O)Nc1nc(C(C)(C)OC(C)C)cs1
Request: // pick min by pIC50: A , B Could you answer with the label of the item you picked?
Result: A
(A: 5.38, B: 6.32)
